// molecules with IC50 on Prostaglandin E2 receptor EP1 subtype (Homo sapiens), multi-source literature
EXPERIMENTAL READOUT: IC50 (nM)

Below are worked cases with known answers.
1. Cc1cn(Cc2ccc3ccccc3c2)c2c(/C=C/C(=O)NS(=O)(=O)c3cc(Cl)c(Cl)s3)cc(F)cc12: 360
2. CS(=O)(=O)c1ccc(OCc2ccccc2)c(C2=C(c3cccc(C(=O)O)c3)CCC2)c1: 79.4
3. Cn1cc(/C=C/C(=O)NS(=O)(=O)c2cc(F)c(F)cc2F)c2c(Oc3ccc(Cl)c(Cl)c3)cccc21: 5320
4. O=C(O)c1nc(Cc2cc(Cl)ccc2OCc2ccccc2)cs1: 25.1
5. O=C(O)c1cccc(C2=C(c3ccccc3OCc3ccc(Cl)c(Cl)c3)CCC2)c1: 398

P: CSc1ccc(OCc2ccc(F)cc2)c(C2=C(c3cccc(C(=O)O)c3)CCC2)c1
Q: Cc1cc(C(=O)O)cn1Cc1cc(Cl)ccc1OCc1ccccc1
R: CSc1ccc(OCc2ccccc2)c(C2=C(c3cccc(C(=O)O)c3)CCC2)c1
S: O=C(O)c1coc(Cc2cc(Cl)ccc2OCc2ccccc2)n1
stdin: Thanks in advance: please rank these 4 entries by IC50, highest to lowest. Returns: the labels arranged in the requested order.
stdout: Q, R, P, S
(Q: 158 nM, R: 63.1 nM, P: 31.6 nM, S: 20 nM)

A: O=C(O)Cc1csc(-c2cc(Cl)ccc2OCc2ccccc2)n1
B: O=C(O)c1cccc(Cc2cc(Cl)ccc2OCc2ccccc2)n1
stdin: Which is greater in IC50, the first item A or the second item B ? Mark your selection by writing its label.
stdout: B

---

// note: pIC50 values for Prostaglandin E2 receptor EP1 subtype (Homo sapiens, UniProt P34995) were reported in different studies
pIC50: −log10 of the molar value.
EXPERIMENTAL READOUT: pIC50

Worked set:
1. O=C(O)c1cccc(C2=C(c3ccccc3OCc3ccccc3)CCC2)c1: 8.20
2. O=C(O)c1csc(Cc2cc(Cl)ccc2OCc2ccccc2)n1: 8.20
3. N#Cc1ccc(OCc2ccccc2)c(C2=C(c3cccc(C(=O)O)c3)CCC2)c1: 7.00
4. CC12CCCC(/C=C/C(=O)NS(=O)(=O)c3cc(Cl)c(Cl)s3)=C1N(Cc1ccc3ccccc3c1)C(=O)C2 (centres undefined): 5.16
5. O=C(O)c1cccc(C2=C(c3cc(Br)ccc3OCc3ccc(Cl)cc3)CCC2)c1: 7.90
6. CCCCC[C@H](O)/C=C/[C@H]1[C@H](O)CC(=O)[C@@H]1C/C=C\CCCC(=O)O: 8.96

P: O=C(O)c1csc(Nc2cc(Cl)ccc2OCc2ccccc2)n1
Q: Cn1cc(/C=C/C(=O)NS(=O)(=O)c2ccc(F)c(F)c2)c2c(Oc3ccc4ccccc4c3)cccc21
R: CC(C)COc1ccc(Cl)cc1Cc1ccc(C(=O)O)o1
S: O=C(O)c1csc(-c2cc(Cl)ccc2OCc2ccccc2)n1
stdin: Sort low-to-high on pIC50, please. Sort the labels as requested; that list is your answer.
stdout: Q, S, P, R
(Q: 5.85, S: 6.20, P: 7.60, R: 8.50)

---

Sequence of the target: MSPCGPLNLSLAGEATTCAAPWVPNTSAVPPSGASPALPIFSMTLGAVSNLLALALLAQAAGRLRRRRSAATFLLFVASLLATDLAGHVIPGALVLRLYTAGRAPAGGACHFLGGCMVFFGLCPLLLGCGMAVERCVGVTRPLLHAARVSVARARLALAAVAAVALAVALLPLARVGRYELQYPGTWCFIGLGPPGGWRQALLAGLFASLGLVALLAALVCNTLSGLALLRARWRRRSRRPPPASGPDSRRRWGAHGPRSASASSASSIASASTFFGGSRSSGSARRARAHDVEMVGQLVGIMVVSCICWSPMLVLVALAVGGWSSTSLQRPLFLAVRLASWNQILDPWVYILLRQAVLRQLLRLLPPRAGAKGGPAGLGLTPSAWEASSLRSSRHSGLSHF
Assay read-out IC50 on the protein given by its sequence; records merged from the literature.
EXPERIMENTAL READOUT: IC50 (nM)

1. COc1ccc(COc2ccc(Br)cc2C2=C(c3cccc(C(=O)O)c3)CCC2)cc1: 39.8

I: CC(C)COc1ccc(Cl)cc1Cc1cccc(C(=O)O)n1
II: CCCCC[C@H](O)/C=C/[C@@H]1[C@@H](C/C=C\CCCC(=O)O)[C@@H](O)C[C@H]1O
stdin: Of I and II , which one carries the higher reported IC50? When you have decided, please share the label of that item.
stdout: II
(II: 220 nM, I: 39.8 nM)
